Species: Rattus norvegicus
Test: DrugMatrix - Regimen: Daily Repeat
Type: toxicity, organism-based, Sprague-Dawley
Parameters: regimen Daily Repeat, gender Male, age 6-8 weeks
Conditions: in vivo, po, 0 mg/kg, 120 h, tissue Blood, route oral GAVAGE, dose level Control, time 5 day, vehicle .5 % CMC
// values below are reported PLATELET COUNT
Return type: number; implicit unit x10E3/uL.

Guide cases for PLATELET COUNT, answers given:
molecule	unit.of.measurement	quantitative.result
C=C(CC)C(=O)c1ccc(OCC(=O)O)c(Cl)c1Cl	x10E3/uL	1053.67
C[C@@H]1CC[C@H]2[C@@H](C)C(=O)O[C@@H]3O[C@@]4(C)CC[C@@H]1[C@]32OO4	x10E3/uL	1196
CC(C)(Sc1cc(C(C)(C)C)c(O)c(C(C)(C)C)c1)Sc1cc(C(C)(C)C)c(O)c(C(C)(C)C)c1	x10E3/uL	1255.5
C[C@]12C/C(=C/O)C(=O)C[C@@H]1CC[C@@H]1[C@@H]2CC[C@@]2(C)[C@H]1CC[C@]2(C)O	x10E3/uL	1267
CCOC(=O)[C@H](CCc1ccccc1)N[C@@H](C)C(=O)N1Cc2ccccc2C[C@H]1C(=O)O	x10E3/uL	1097.5
CO[C@H]1C[C@@H]2CC[C@@H](C)[C@@](O)(O2)C(=O)C(=O)N2CCCC[C@H]2C(=O)O[C@H]([C@H](C)C[C@@H]2CC[C@@H](O)[C@H](OC)C2)CC(=O)[C@H](C)/C=C(\C)[C@@H](O)[C@@H](OC)C(=O)[C@H](C)C[C@H](C)/C=C/C=C/C=C/1C	x10E3/uL	1211.67
CCCCC1C(=O)N(c2ccccc2)N(c2ccccc2)C1=O	x10E3/uL	1213.83
COc1ccccc1OCC(O)COC(N)=O (stereo unspecified)	x10E3/uL	1196

Record CC(C(=O)O)c1ccc(-c2ccccc2)c(F)c1 (stereo unspecified) . Reported PLATELET COUNT: 1255.5

Record CC(=O)O[C@]1(C(C)=O)CC[C@H]2[C@@H]3C=C(Cl)C4=CC(=O)[C@@H]5C[C@@H]5[C@]4(C)[C@H]3CC[C@@]21C [CYPROTERONE ACETATE] . Reported PLATELET COUNT: 1097.5

----------
// values below are reported CHLORIDE
Species: Rattus norvegicus
Assay: DrugMatrix - Regimen: Daily Repeat
Assay type: toxicity, organism-based, Sprague-Dawley
Parameters: regimen Daily Repeat, gender Male, age 6-8 weeks
Conditions: in vivo, po, 0 mg/kg, 120 h, tissue Plasma, route oral GAVAGE, dose level Control, time 5 day, vehicle .5 % CMC
Field: value (include unit after the number)

molecule	CHLORIDE
Cc1cnc(C(=O)NCCc2ccc(S(=O)(=O)NC(=O)NC3CCCCC3)cc2)cn1 [GLIPIZIDE]	101.5 MEQ/L
COc1ccccc1OCC(O)COC(N)=O (stereo not given) [METHOCARBAMOL]	101 MEQ/L
Nc1cccc(Cl)c1 [3-CHLOROANILINE]	104.67 MEQ/L
CC(C)(Sc1cc(C(C)(C)C)c(O)c(C(C)(C)C)c1)Sc1cc(C(C)(C)C)c(O)c(C(C)(C)C)c1 [PROBUCOL]	101 MEQ/L

Record C=C(CC)C(=O)c1ccc(OCC(=O)O)c(Cl)c1Cl [ETHACRYNIC ACID] . Reported CHLORIDE: 108 MEQ/L
